# TEST: soluble on expression in E. coli; label from the status in PepcDB or PDB records
MEASUREMENT KIND: soluble on expression in E. coli

## Task Query: soluble on expression in E. coli; subject: MRGLMLRSFSAGYSTQPVIADLNVPLLPRGKITILLGPNGCGKSTLLRSLAGLNNADGEALLDGEDLMSLSFAERAQKVVFLPQSLPQGVHLHVLESIIVVLRASGGRDNAQGRAQILAILEQLGITHLALQYLDQLSGGQRQLVGLAQSLIRRPELLLLDEPLSALDLNYQFHVMDLVRRDTQAQNRVTIVVAHDINIALRHGDHVLMLKDGRLVASGAPETVITAERLAEVYRVRGRVERCSQGKLQVVLDGVIAV
## Result not soluble

## Task Query: soluble on expression in E. coli; subject: MPNKNTQEYWEERGRKAIENELKRDKTKAEEIERILNMMIKRIEKEINAFIVKYGDFAGVTLQEAQKIIDEFDVKAFQEEAKRLVENKDFSDRANEELKKYNTKMYVSREQMLKIQIEFLIAYATAQTELSMREYFESTAYRVFSDQAGILGEGVQVAKEVIDTIVDTQFHGVVWSERLWTNTEAMKQEVEEIIANVVIRGRHPNEYVKDMRKHLNKFEGTARQKTAAIKSLLYTESARVHAQSSIDSMKEISPEGYYMYIAKIDNRTTKVCKGLNGEIFKVKDAKIGVNFYPMHINCRSDCALLPKSMWPKKPSKKRKTKYFGGKVKSGD
## Result not soluble

## Task Query: soluble on expression in E. coli; subject: MGHHHHHHSHMPKAKKVDAVGPAADADITKPELVVPSEDPKTEEIESVEEKTVEKSTEKPVDKKGGRPVRGKKSPGSDEEAMDGEYEADEEEAALEPRRSTRGKRSYDQETGGRSVRKVVKKAKEVNKKPERAPSARGRGQKPAIGNDSTTEDGEEKKSGKNASDTDSDEEAKVVKRPTSGRMSGAPPSARMLALKKKNHDDSE
## Result not soluble
